biological target: GIPR (CHO-K1-hGIPR cells) (Homo sapiens); construct: host or cells: CHO-K1; assay: FACS binding assay; conditions: competition with 20 nM GIP-057, 4° C., 1 hour, read-out: pIC50 Category (converted)
*1 amine or outer side, *2 acyl side, *3 side chain or, on linkers, in order; H or OH if unused. Where a SMILES comes first, the peptide text is derived from it. Bridges are numbered along the chain shown (N, C = ends). [ ]: non-standard residue; d: D form. The star is where a group is joined. X3 = O=C(O)CN1CCN(CC(=O)O)CCN(CC(=O)NCCCOCCOCCOCCCN*)CCN(CC(=O)O)CC1; Trp(5-Cl) = N[C@@H](Cc1c[nH]c2ccc(Cl)cc12)C(=O)O; Pyridine(2,6-diCH2) = c1cc(C[*:1])nc(C[*:2])c1; X7 = c1cc(CSCCN[*:2])cc(C[*:1])c1; Hyp = O=C(O)[C@@H]1C[C@@H](O)CN1; Suc = O=C(CCC(=O)[*:2])[*:1]; Thp = NC1(C(=O)O)CCOCC1; Aib = CC(C)(N)C(=O)O
Measured IC50 of individual entries

| compound | IC50 |
| --- | --- |
| CC[C@H](C)[C@@H]1NC(=O)[C@H](CC(C)C)NC(=O)C2(CCOCC2)NC(=O)[C@@H](NC(=O)[C@@H](CC(C)C)NC(=O)[C@H](CCC(=O)O)NC(=O)[C@@H]2C[C@@H](O)CN2C(=O)[C@H](Cc2c[nH]c3ccc(Cl)cc23)NC(=O)[C@H](Cc2c[nH]c3ccccc23)NC(=O)[C@H](CO)NC(C)=O)CSCc2cccc(n2)CSC[C@@H](C(N)=O)NC1=O [GIP-188] (Ac-SW[Trp(5-Cl)][Hyp]E[dL]C[Thp]LIC-NH2; linker 7-11 via Pyridine(2,6-diCH2)) | < 10 nM |

// next item, IC50 requested
Prompt line: What value of measured IC50 is listed for CC[C@H](C)[C@@H]1NC(=O)[C@H](CC(C)C)NC(=O)C(C)(C)NC(=O)[C@@H](NC(=O)[C@@H](CC(C)C)NC(=O)[C@H](CCC(=O)O)NC(=O)[C@@H]2C[C@@H](O)CN2C(=O)[C@H](Cc2c[nH]c3ccc(Cl)cc23)NC(=O)[C@H](Cc2c[nH]c3ccccc23)NC(=O)[C@H](CC(=O)O)NC(=O)CCC(=O)NCCCOCCOCCOCCCNC(=O)CN2CCN(CC(=O)O)CCN(CC(=O)O)CCN(CC(=O)O)CC2)CSCc2cccc(c2)CSCCNC1=O [GIP-094] ({X3-Suc}-DW[Trp(5-Cl)][Hyp]E[dL]C[Aib]LI; linker 7-C via X7) ?
Response line: < 10 nM

---

Biological target: GIPR (CHO-K1-hGIPR cells) (Homo sapiens)
Construct: host or cells: CHO-K1
Sequence (P48546 22-466): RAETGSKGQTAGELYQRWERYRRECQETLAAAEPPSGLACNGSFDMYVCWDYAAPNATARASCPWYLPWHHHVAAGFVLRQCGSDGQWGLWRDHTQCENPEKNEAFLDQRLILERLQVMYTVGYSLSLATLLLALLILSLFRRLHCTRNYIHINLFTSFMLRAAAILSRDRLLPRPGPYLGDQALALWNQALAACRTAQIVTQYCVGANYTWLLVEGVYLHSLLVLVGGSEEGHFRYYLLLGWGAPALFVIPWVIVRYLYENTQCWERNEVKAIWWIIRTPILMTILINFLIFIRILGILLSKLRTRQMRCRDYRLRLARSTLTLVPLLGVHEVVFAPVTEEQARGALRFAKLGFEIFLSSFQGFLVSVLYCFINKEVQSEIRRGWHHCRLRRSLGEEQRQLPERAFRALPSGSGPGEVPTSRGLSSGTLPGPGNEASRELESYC
Assay: FACS binding assay
Conditions: competition with 20 nM GIP-057, 4° C., 1 hour, read-out: pIC50 Category (converted)
*1 amine or outer side, *2 acyl side, *3 side chain or, on linkers, in order; H or OH if unused. Where a SMILES comes first, the peptide text is derived from it. Bridges are numbered along the chain shown (N, C = ends). [ ]: non-standard residue; d: D form. Trp(5-Cl) = N[C@@H](Cc1c[nH]c2ccc(Cl)cc12)C(=O)O; Pyridine(2,6-diCH2) = c1cc(C[*:1])nc(C[*:2])c1; Phe(2,4-Cl2) = N[C@@H](Cc1ccc(Cl)cc1Cl)C(=O)O; mXylylene = c1cc(C[*:1])cc(C[*:2])c1; Hyp = O=C(O)[C@@H]1C[C@@H](O)CN1; Aic = NC1(C(=O)O)Cc2ccccc2C1; Thp = NC1(C(=O)O)CCOCC1; Nleu = CC(C)CNCC(=O)O
readout kind: IC50

| compound | measurement |
| --- | --- |
| CC[C@H](C)[C@@H]1NC(=O)[C@H](CC(C)C)NC(=O)C2(CCOCC2)NC(=O)[C@@H](NC(=O)[C@@H](CC(C)C)NC(=O)[C@H](CC(=O)O)NC(=O)[C@@H]2C[C@@H](O)CN2C(=O)[C@H](Cc2c[nH]c3ccc(Cl)cc23)NC(=O)[C@H](Cc2c[nH]c3ccccc23)NC(=O)[C@H](CC(=O)O)NC(C)=O)CSCc2cccc(n2)CSC[C@@H](C(N)=O)NC1=O [GIP-192] (Ac-DW[Trp(5-Cl)][Hyp]D[dL]C[Thp]LIC-NH2; linker 7-11 via Pyridine(2,6-diCH2)) | < 10 nM |
| CC[C@H](C)[C@@H]1NC(=O)[C@H](CC(C)C)NC(=O)C2(CCOCC2)NC(=O)[C@@H](NC(=O)[C@@H](CC(C)C)NC(=O)[C@H](CCC(=O)O)NC(=O)[C@@H]2C[C@@H](O)CN2C(=O)[C@H](Cc2c[nH]c3ccc(Cl)cc23)NC(=O)[C@H](Cc2ccc(Cl)cc2Cl)NC(=O)[C@H](CC(=O)O)NC(C)=O)CSCc2cccc(n2)CSC[C@@H](C(N)=O)NC1=O [GIP-212] (Ac-D[Phe(2,4-Cl2)][Trp(5-Cl)][Hyp]E[dL]C[Thp]LIC-NH2; linker 7-11 via Pyridine(2,6-diCH2)) | < 10 nM |
| CC[C@H](C)[C@@H]1NC(=O)[C@H](CC(C)C)NC(=O)C2(CCOCC2)NC(=O)[C@@H](NC(=O)[C@@H](CC(C)C)NC(=O)[C@H](CCC(=O)O)NC(=O)CN(CC(C)C)C(=O)[C@H](Cc2c[nH]c3ccc(Cl)cc23)NC(=O)[C@H](Cc2c[nH]c3ccccc23)NC(=O)[C@H](CC(=O)O)NC(C)=O)CSCc2cccc(n2)CSC[C@@H](C(N)=O)NC1=O [GIP-184] (Ac-DW[Trp(5-Cl)][Nleu]E[dL]C[Thp]LIC-NH2; linker 7-11 via Pyridine(2,6-diCH2)) | < 10 nM |
| CC[C@H](C)[C@@H]1NC(=O)[C@H](CC(C)C)NC(=O)[C@H](CCCCN)NC(=O)[C@@H](NC(=O)[C@H](CC(C)C)NC(=O)[C@H](CCC(=O)O)NC(=O)[C@@H]2CCCN2C(=O)[C@H](Cc2c[nH]c3ccccc23)NC(=O)[C@H](Cc2c[nH]c3ccccc23)NC(=O)[C@H](CC(=O)O)NC(=O)[C@H](Cc2ccc(O)cc2)NC(=O)[C@@H](N)CCSC)CSCc2cccc(c2)CSC[C@@H](C(N)=O)NC1=O [GIP-243] (H-MYDWWPELCKLIC-NH2; linker 9-13 via mXylylene) | 10 to 79.4 nM |

// next item, IC50 requested
Prompt line: What value of measured IC50 is listed for CC[C@H](C)[C@@H]1NC(=O)[C@H](CC(C)C)NC(=O)C2(Cc3ccccc3C2)NC(=O)[C@@H](NC(=O)[C@@H](CC(C)C)NC(=O)[C@H](CCC(=O)O)NC(=O)[C@@H]2C[C@@H](O)CN2C(=O)[C@H](Cc2c[nH]c3ccc(Cl)cc23)NC(=O)[C@H](Cc2c[nH]c3ccccc23)NC(=O)[C@H](CC(=O)O)NC(C)=O)CSCc2cccc(n2)CSC[C@@H](C(N)=O)NC1=O [GIP-206] (Ac-DW[Trp(5-Cl)][Hyp]E[dL]C[Aic]LIC-NH2; linker 7-11 via Pyridine(2,6-diCH2)) ?
Response line: < 10 nM
